systemName: Caspase-8 (Homo sapiens)
Sequence (Q14790 217-374 limits assumed): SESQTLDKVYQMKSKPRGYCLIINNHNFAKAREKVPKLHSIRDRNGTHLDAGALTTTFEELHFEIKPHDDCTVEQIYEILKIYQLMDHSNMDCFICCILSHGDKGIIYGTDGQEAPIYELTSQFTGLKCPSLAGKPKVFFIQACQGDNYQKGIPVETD
Sequence (Q14790 385-479 limits assumed): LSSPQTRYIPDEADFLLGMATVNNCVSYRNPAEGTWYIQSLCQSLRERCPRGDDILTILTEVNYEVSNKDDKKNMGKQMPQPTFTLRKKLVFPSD
experimentNotes: Inhibitory concentration against recombinant human caspase-8 […]
measure: IC50

1. CCC(C(=O)N[C@@H](CC(=O)O)C(=O)CNCN(CC)CC)n1ccnc(NCc2nonc2C)c1=O (stereo partly drawn): > 10 µM
2. CCCCCCN(C)CNCC(=O)[C@H](CC(=O)O)NC(=O)C(CC)n1ccnc(NCc2nonc2C)c1=O (stereo partly drawn): > 10 µM
3. CCCCCCN(C)CNCC(=O)[C@H](CC(=O)O)NC(=O)C(CC)n1cc(CC)nc(NCc2nonc2C)c1=O (stereo partly drawn): 9.54 µM
4. CCCCN(C)CNCC(=O)[C@H](CC(=O)O)NC(=O)C(CC)n1ccnc(NCc2nonc2C)c1=O (stereo partly drawn): > 10 µM
5. CCC(C(=O)N[C@@H](CC(=O)O)C(=O)CNCN1CCOCC1)n1cc(C(C)(C)C)nc(NCc2nonc2C)c1=O (stereo partly drawn): > 10 µM

Query: What measured IC50 goes with CCC(C(=O)N[C@@H](CC(=O)O)C(=O)CSCc1ccccc1)n1ccnc(NCCCN2CCCC2=O)c1=O (stereo partly drawn) ?
Reply: 9.92 µM

----------
systemName: Caspase-1 (Homo sapiens, UniProt P29466)
Sequence (P29466 120-297 limits assumed): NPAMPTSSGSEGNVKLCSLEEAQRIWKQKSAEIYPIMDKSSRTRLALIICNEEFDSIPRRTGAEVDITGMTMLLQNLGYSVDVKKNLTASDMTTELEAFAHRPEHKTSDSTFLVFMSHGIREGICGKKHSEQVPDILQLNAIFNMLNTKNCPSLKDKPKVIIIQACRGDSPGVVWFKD
Sequence (P29466 317-404 limits assumed): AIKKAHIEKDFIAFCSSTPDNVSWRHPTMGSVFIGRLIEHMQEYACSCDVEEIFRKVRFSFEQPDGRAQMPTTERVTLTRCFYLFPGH
experimentNotes: Inhibitory concentration against recombinant human caspase-1 in neuronal precursor (NT2) cells
measure: pIC50
Entry type: numeric. Quantity: pIC50, the -log10 of concentration in molar units.

# annotated cases, reported pIC50 shown
1. CCC(C(=O)N[C@@H](CC(=O)O)C(=O)CNCN1CCCC1)n1ccnc(NCc2nonc2C)c1=O (some centres not stated): 6.54
2. CCC(C(=O)N[C@@H](CC(=O)O)C(=O)CNCN1Cc2ccccc2C1)n1ccnc(NCc2nonc2C)c1=O (some centres not stated): 8.06
3. CCC(C(=O)N[C@@H](CC(=O)O)C(=O)CSCc1ccccc1)n1ccnc(NCCCOC)c1=O (some centres not stated): 6.04
4. CCC(C(=O)N[C@@H](CC(=O)O)C(=O)CNCN(C)CC)n1ccnc(NCc2nonc2C)c1=O (some centres not stated): 7.25

Query: What measured pIC50 goes with CCC(C(=O)N[C@@H](CC(=O)O)C(=O)CSCc1ccccc1)n1ccnc(Nc2ccc3sc(C)nc3c2)c1=O (some centres not stated) ?
Reply: 6.66

Query: What measured pIC50 goes with CCCCCCN(C)CNCC(=O)[C@H](CC(=O)O)NC(=O)C(CC)n1cc(C(C)(C)C)nc(NCc2nonc2C)c1=O (some centres not stated) ?
Reply: 7.17

Query: What measured pIC50 goes with CCCCCN(C)CC(=O)C(CC(=O)O)NC(=O)C(CC)n1cc(C(C)(C)C)nc(NCc2nonc2C)c1=O (configuration not stated) ?
Reply: 6.96

----------
systemName: UniProt:P55210
Sequence (P55210 24-198 limits assumed): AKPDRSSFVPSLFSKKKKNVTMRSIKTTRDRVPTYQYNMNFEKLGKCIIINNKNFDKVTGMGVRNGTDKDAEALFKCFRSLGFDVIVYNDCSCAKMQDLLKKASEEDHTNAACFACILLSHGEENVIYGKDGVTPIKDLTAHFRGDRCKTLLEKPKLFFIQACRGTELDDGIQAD
Sequence (P55210 207-303 limits assumed): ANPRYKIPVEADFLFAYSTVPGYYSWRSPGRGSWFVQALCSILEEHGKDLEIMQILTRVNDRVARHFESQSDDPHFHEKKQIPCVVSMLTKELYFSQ
experimentNotes: Inhibitory concentration against recombinant human caspase-7 […]
measure: log10 of IC50 (log10 of the value in µM)
On a log10 scale: recorded IC50, unit µM.

1. CC[C@@H](C(=O)N[C@@H](CC(=O)O)C(=O)CSCc1ccccc1)n1cccc(NC(=O)[C@H](CC(=O)O)NC(C)=O)c1=O: -2.00
2. CCC(C(=O)N[C@@H](CC(=O)O)C(=O)CSCc1ccccc1)n1ccnc(Nc2ccc3sc(C)nc3c2)c1=O (some centres undefined): 0.38
3. COc1ccc(S(C)(=O)=O)cc1CC(=O)N[C@H](C(=O)N[C@@H](CC(=O)O)C(=O)CSCc1ccccc1)C(C)C: -0.92
4. CCCCCCN(C)CNCC(=O)[C@H](CC(=O)O)NC(=O)C(CC)n1ccnc(NCc2nonc2C)c1=O (some centres undefined): -0.85
5. CCC(C(=O)N[C@@H](CC(=O)O)C(=O)CSCc1ccccc1)n1ccnc(NCc2cc(C)no2)c1=O (some centres undefined): 0.40

Query: Checklist item: log10 of IC50 tested on UniProt:P55210, entry CCC(C(=O)N[C@@H](CC(=O)O)C(=O)CCCc1ccccc1)n1cc(C(C)(C)C)nc(NCc2nonc2C)c1=O (some centres undefined) , value?
Reply: -0.85

Query: Checklist item: log10 of IC50 tested on UniProt:P55210, entry CCC(C(=O)N[C@@H](CC(=O)O)C(=O)CSCc1ccccc1)n1ccnc(NCCCc2nc(C)no2)c1=O (some centres undefined) , value?
Reply: 0.41

----------
systemName: UniProt:Q14790
experimentNotes: Inhibitory concentration against recombinant human caspase-8 […]
measure: pIC50
Entry type: numeric. Quantity: pIC50, the -log10 of concentration in molar units.

1) CCC(C(=O)N[C@H](C=O)CC(=O)O)n1ccnc(NCc2nonc2C)c1=O (some centres not stated): 6.00
2) CCC(C(=O)N[C@@H](CC(=O)O)C(=O)CCCc1ccccc1)n1cc(C(C)(C)C)nc(NCc2nonc2C)c1=O (some centres not stated): 5.28

Query: What measured pIC50 goes with CCC(C(=O)N[C@@H](CC(=O)O)C(=O)CSCc1ccccc1)n1ccnc(NCC2COc3ccccc3O2)c1=O (some centres not stated) ?
Reply: 5.09

Query: What measured pIC50 goes with CCC(C(=O)N[C@@H](CC(=O)O)C(=O)CSCc1ccccc1)n1ccnc(NCCCOC)c1=O (some centres not stated) ?
Reply: 5.12

----------
systemName: Caspase-8 (Homo sapiens)
experimentNotes: Inhibitory concentration against recombinant human caspase-8 […]
measure: IC50

Query: What measured IC50 goes with CCC(C(=O)N[C@@H](CC(=O)O)C(=O)CNCN(C)CC)n1ccnc(NCc2nonc2C)c1=O (stereo partly drawn) ?
Reply: > 10 µM

Query: What measured IC50 goes with CCOCN(C)CNCC(=O)[C@H](CC(=O)O)NC(=O)C(CC)n1ccnc(NCc2nonc2C)c1=O (stereo partly drawn) ?
Reply: > 10 µM

Query: What measured IC50 goes with CCC(C(=O)N[C@@H](CC(=O)O)C(=O)CSCc1ccccc1)n1ccnc(NCCn2cncn2)c1=O (stereo partly drawn) ?
Reply: > 10 µM
